# Tested on: NCI-H226
# Procedure text: NCI tumour cell line growth inhibition, 48 h
The source made the active and inactive calls. Cut-off read from the data, not from the text of the source: active = GI50 up to about 1.1 µM and inactive = higher.
Readout name: GI50

>>> meas_value("O=P(O)(CN1CCN(CP(=O)(O)c2ccccc2)CCN(CP(=O)(O)c2ccccc2)CC1)c1ccccc1")
"> 100 µM (inactive)"
>>> meas_value("CC(=O)C1C(=O)NC(=O)C1=O (stereo not given)")
"> 100 µM (inactive)"
>>> meas_value("Cc1ccc(C)c(N2C(=O)C(=O)C(c3nc4ccccc4o3)C(=O)C2=O)c1")
"> 100 µM (inactive)"
>>> meas_value("CO/C(N)=C(C#N)/N=C/c1cccs1")
"> 100 µM (inactive)"
>>> meas_value("O=C(c1ccccn1)c1nnn2ccccc12")
"> 100 µM (inactive)"
>>> meas_value("Cc1[nH]c(=O)[nH]c(=O)c1C(=O)N(CCO)Cc1ccccc1")
"17 µM (inactive)"
>>> meas_value("COC(=O)CCC1CCc2c(OC)ccc(O)c2C1=O (stereo not given)")
"28.7 µM (inactive)"
>>> meas_value("CCCCCCCCCCCC[C@@H](O)[C@H]1CCC([C@H](O)CCCCC(=O)CCCCCCCC2=C[C@H](C)OC2=O)O1 (stereo not given in full)")
"15.8 µM (inactive)"
>>> meas_value("CSCCC(NC(=O)Cc1ccc(C(=O)c2ccccc2)cc1)C(=O)N1CCN(CCCCN2c3ccccc3Sc3cc(N=[N+]=[N-])ccc32)CC1 (stereo not given)")
"78.2 µM (inactive)"
>>> meas_value("Cc1ccc(S(=O)(=O)n2cc(/C=C/C#N)c(-c3cn(S(=O)(=O)c4ccc(C)cc4)cc3-c3cn(S(=O)(=O)c4ccc(C)cc4)cc3/C=C/C#N)c2)cc1")
"> 100 µM (inactive)"

----------
# Test system: OVCAR-8
# Procedure text: NCI tumour cell line growth inhibition, 48 h
The source made the active and inactive calls. No stated cut-off is given here; in the data, active = GI50 up to about 1.1 µM and inactive = higher.
Labels: active, inactive

>>> cat("Clc1ccc2c(c1)[nH]c1c2nc2sccn21")
"inactive"
>>> cat("NC(=S)N/N=C(/CC(=O)c1ccc([N+](=O)[O-])cc1)C(=O)Nc1ncc([N+](=O)[O-])s1")
"inactive"
>>> cat("CC(C)(C)OC(=O)NCCC1CN(C(=O)c2ccccc2)c2ccccc21 (centres undefined)")
"inactive"
>>> cat("COC(=O)c1ccccc1NC(=O)C(=O)CC(=O)c1ccccc1NC1=CC(=O)C(=O)c2ccccc21")
"inactive"
>>> cat("CCNC1=C(NC(=O)c2ccc(F)cc2)C(=O)c2ccccc2C1=O")
"inactive"
>>> cat("CN(C)C(=O)Nc1c([N+](=O)[O-])cc(C(F)(F)F)cc1[N+](=O)[O-]")
"inactive"
>>> cat("Nc1c2c(nc3ccccc13)CCCCCC2")
"inactive"
>>> cat("CCCCCCCCCC[C@H](O)[C@H]1CC[C@@H]([C@@H](O)CC[C@H](O)[C@@H]2CCC(CCCCCCC[C@@H](O)CC3=C[C@H](C)OC3=O)O2)O1 (some centres undefined)")
"inactive"
>>> cat("O=C1c2ccccc2C(=O)[C@@]23O[C@@]12C1(Oc2cccc4cccc(c24)O1)[C@@H]1O[C@@H]1[C@@H]3O")
"inactive"
>>> cat("CC(C)CC(=O)OC[n+]1ccc(-c2c(COC(=O)NC(C)C)c(COC(=O)NC(C)C)c3n2CCC3)cc1")
"inactive"
>>> cat("Cc1ccc(S(=O)(=O)N2CCCCN(S(=O)(=O)c3ccc(C)cc3)Cc3ccccc3OCCOCCOc3c4cccc3Cc3cccc5c3OCCOCCOc3ccccc3CN(S(=O)(=O)c3ccc(C)cc3)CCCN(S(=O)(=O)c3ccc(C)cc3)Cc3ccccc3OCCOCCOc3c(cccc3C4)Cc3cccc(c3OCCOCCOc3ccccc3C2)C5)cc1")
"inactive"
>>> cat("NC(N)=NCCC[C@H](N)C(=O)NCC(=O)N[C@@H](CC(=O)O)c1ncc(NC(=O)C(F)(F)F)o1")
"inactive"
>>> cat("CCOC(=O)/C(O)=C/c1cc(OC)cc(=O)o1")
"inactive"
>>> cat("NC(=O)N/N=C(/CC1C(=O)Oc2ccccc21)c1ccccc1O (centres undefined)")
"inactive"
>>> cat("CSc1nc2c(nc(N)n2C2OC(CO)C(O)C(O)C2O)c(=O)n1C (centres undefined)")
"inactive"
>>> cat("C[C@@]1(O)C2C3CC4C5C3C1[C@](O)(C42)[C@H]5Br (some centres undefined)")
"inactive"
>>> cat("Cc1ccc(C)c(N2C(=O)C(=O)C(c3nc4ccccc4o3)C(=O)C2=O)c1")
"inactive"
>>> cat("N#Cc1ccc(C2OCC3CC=CCC3CO2)cc1 (centres undefined)")
"inactive"
>>> cat("CS/C(c1ccccc1)=[N+](\\[O-])Cc1ccccc1")
"inactive"
>>> cat("COc1cc2c(cc1OC)[C@@H](Nc1ccc(F)cc1)C1COC(=O)[C@@H]1C2c1cc(OC)c(O)c(OC)c1 (some centres undefined)")
"inactive"
>>> cat("CC(C)CN(CC(C)C)C(=O)C1CCCC[C@@H]1C(=O)O (some centres undefined)")
"inactive"
>>> cat("Nc1ccc(S(=O)(=O)NCCS(=O)(=O)O)cc1")
"inactive"
>>> cat("CN(C)CCNC(=O)c1cccc2c1C(=O)c1ccccc1C2=O")
"inactive"
>>> cat("N#CCCC1(CCC#N)CCCCCCC(CCC#N)(CCC#N)C(O)C1O (centres undefined)")
"inactive"
>>> cat("CO/C(N)=C(C#N)/N=C/c1cccs1")
"inactive"
>>> cat("CN1c2ccccc2S(=O)(=O)n2c(COc3ccc(Cl)cc3)nnc21")
"inactive"
>>> cat("CCOC(=O)/C(C#N)=N\\Nc1ccc(-n2c(C)nc3ccccc3c2=O)cc1")
"inactive"
>>> cat("CC1=COC(C)(C=C(C#N)C#N)CC1 (centres undefined)")
"inactive"
>>> cat("COc1cc(OC)cc(C(=O)Cc2c(C(=O)c3ccccc3)c3ccccc3n2C(=O)c2ccccc2)c1")
"inactive"
>>> cat("COc1cc2c(cc1OC)C(=O)/C(=C/c1ccc(O)cc1)CC2")
"inactive"
>>> cat("O=C(Cn1c2ccc(Br)cc2c2nc3ccccc3nc21)N/N=C/c1ccccc1")
"inactive"
>>> cat("S=C1Cc2c([nH]c3ccccc23)-c2ccccc2N1")
"inactive"
>>> cat("CN(C)c1nc(NC23CC4CC(CC(C4)C2)C3)nc(N(C)C)n1")
"inactive"
>>> cat("CC(NC1=NCCO1)c1cccc([N+](=O)[O-])c1 (centres undefined)")
"inactive"
>>> cat("Nc1nc(N)c2ncn(Cc3c(Cl)cccc3Cl)c2n1")
"inactive"
>>> cat("CN(C)N1C(=O)CC2(CCN(CCCC(=O)c3ccc(F)cc3)CC2)C1=O")
"inactive"
>>> cat("C=C(C)C12OC3(c4ccccc4)OC1C1C4OC4(CO)C(O)C4(O)C(=O)C(C)=CC4C1(O3)C(C)C2OC(=O)/C=C/C=C/c1ccccc1 (centres undefined)")
"active"
>>> cat("CCOC(=O)CCc1c(C)c2c(OC(C)=O)cc(OC(C)=O)cc2oc1=O")
"inactive"
>>> cat("Cn1c2c(c3ccccc31)C1C(=O)N(c3ccccc3)C(=O)C1CC2 (centres undefined)")
"inactive"

Origin of measurements: ChEMBL document CHEMBL1201862
